Numbers sourced from PubChem BioAssay.

Experiment: blockers of DNA damage checkpoint Chk1 activation – imaging, HeLa, hydroxyurea, phospho-Chk1 nuclear intensity, primary screen (AID 1187); further: test concentration not given here
Conditions: hydroxyurea-induced phospho-Chk1 immunofluorescence imaging, higher = more signal
Lab note: anything with z-score at or over -0.3 counts as YES; the rest go in NO.

Some solved entries appear below for comparison.
- COMPOUND: "CC(C)(C)N1CC=CC23O[C@@H]4/C=C\\CCCOC(=O)C4[C@H]2C(=O)N(CCCO)[C@@H]3C1=O (some centres not stated)"
  ASSIGNED CLASS: "YES"
- COMPOUND: "CC(C)NC(=O)[C@@H]1c2ccccc2C(=O)N(Cc2ccc(OC(F)(F)F)cc2)[C@H]1c1ccc(CO)cc1"
  ASSIGNED CLASS: "YES"
- COMPOUND: "CCCN1C(=O)[C@@]2(c3ccc([N+](=O)[O-])cc3)CC(=O)N(CC34CC5CC(CC(C5)C3)C4)[C@@H]2c2ccc(CO)cc21"
  ASSIGNED CLASS: "YES"

Incoming: Please tell me: is the compound C=CCOC(=O)[C@@H]1[C@H]2C(=O)O[C@H](c3ccccc3)[C@H](c3ccccc3)N2[C@H](c2ccc(OCCOC(=O)[C@H]3C[C@H]4C(=O)NCC(=O)N4[C@H]3c3cccc(OCCO)c3)cc2)[C@@]12C(=O)Nc1ccc(I)cc12 at or over -0.3 in terms of z-score?
Outgoing: NO

Incoming: Please tell me: is the compound CC(=O)c1ccc(C(O)C2C=CC3C(=O)N(c4ccccc4)C(=O)C3N2Nc2ccc(C(C)C)cc2)cc1 (configuration not stated) at or over -0.3 in terms of z-score?
Outgoing: NO

Incoming: Please tell me: is the compound O=C1C[C@@](C(=O)NC2CC2)(c2ccc([N+](=O)[O-])cc2)[C@@H](c2ccc(CO)cc2)N1C1CCCCC1 at or over -0.3 in terms of z-score?
Outgoing: NO

---

Molecular target: Homeobox protein Hox-A13 (Mus musculus) (UniProt Q62424)
Sequence (Q62424 whole entry, looked up): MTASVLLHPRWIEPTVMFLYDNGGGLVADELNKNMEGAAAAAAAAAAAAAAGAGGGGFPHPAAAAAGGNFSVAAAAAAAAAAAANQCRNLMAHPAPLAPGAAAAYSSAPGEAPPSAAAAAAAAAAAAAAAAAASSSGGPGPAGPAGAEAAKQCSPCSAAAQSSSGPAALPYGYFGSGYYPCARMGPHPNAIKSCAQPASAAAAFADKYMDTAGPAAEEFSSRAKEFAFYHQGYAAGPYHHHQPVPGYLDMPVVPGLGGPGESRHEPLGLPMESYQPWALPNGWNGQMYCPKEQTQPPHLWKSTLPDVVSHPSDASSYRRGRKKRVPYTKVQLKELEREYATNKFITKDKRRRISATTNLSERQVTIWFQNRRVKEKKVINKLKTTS
Assay: disruptors of Hoxa13 oligonucleotide interaction – biochemical, fluorescence polarization, labeled oligonucleotide, primary screen (AID 1185)
Conditions: Hoxa13:DNA binding, 15 min, higher = more signal, called active from +8 up or from −8 down
Lab note: anything with z-score at or over -4 counts as TRUE; the rest go in FALSE.

Some solved entries appear below for comparison.
- MOLECULE: "COC(=O)[C@@]1(Cc2ccc(F)cc2)[C@H]2c3cc(C(=O)N4CCCC4)n(CCc4ccccn4)c3C[C@H]2CN1C(=O)c1ccccc1"
  ASSIGNED CLASS: "FALSE"
- MOLECULE: "C=CCN1Cc2ccccc2[C@H]2OC(c3ccc(OCCCO)cc3)=N[C@@]2(CCS(=O)(=O)c2ccccc2)C1=O"
  ASSIGNED CLASS: "TRUE"
- MOLECULE: "COc1ccc([Si](C)(C)[C@H]2[C@H](CC(=O)N3Cc4ccccc4C[C@H]3CO)O[C@@]3(C(=O)N(c4ccccc4)c4ccccc43)[C@@H]2C)cc1"
  ASSIGNED CLASS: "FALSE"
- MOLECULE: "O=C1C[C@@](C(=O)NCc2ccccc2)(c2ccc([N+](=O)[O-])cc2)[C@@H](c2ccc(CO)cc2)N1C1CCCCC1"
  ASSIGNED CLASS: "TRUE"

Incoming: Please tell me: is the molecule COc1ccc([Si](C)(C)[C@H]2[C@H](CC(=O)N3Cc4ccccc4C[C@H]3CO)O[C@@]3(C(=O)N(C)c4ccccc43)[C@@H]2C)cc1 at or over -4 in terms of z-score?
Outgoing: FALSE

Incoming: Please tell me: is the molecule COCCCNC(=O)[C@@H]1c2ccccc2C(=O)N(Cc2ccc(OC(F)(F)F)cc2)[C@H]1c1ccc(CO)cc1 at or over -4 in terms of z-score?
Outgoing: TRUE

Incoming: Please tell me: is the molecule COc1ccc(C(O)C2C=CC3C(=O)N(c4ccccc4)C(=O)C3N2Nc2ccc(C#N)cc2)cc1OCc1ccccc1 (configuration not stated) at or over -4 in terms of z-score?
Outgoing: TRUE

---

// reported composite z-score per item
Assay: binders from COS7 lysate, DM2A8 probe, primary screen, torsin A project, cell lysate, small-molecule microarray, fluorescence 635/667 (AID 1065)
Conditions: higher = more signal, COS7 lysate expressing mutant human TOR1A
// response body must contain only the number

Incoming: Data request, read-out composite z-score, for COc1cc(C(O)C2C=CC3C(=O)N(c4ccccc4)C(=O)C3N2Nc2ccccc2F)cc(OC)c1OC (stereo not given)
Outgoing: 0.155

Incoming: Data request, read-out composite z-score, for CN(C)CCCCNC(=O)[C@H]1C[C@H]2C(=O)NCC(=O)N2[C@H]1c1ccc(O)cc1
Outgoing: -1.42

Incoming: Data request, read-out composite z-score, for CC(C)C(O)C1C=CC2C(=O)NC(=O)C2N1Nc1ccccn1 (stereo not given)
Outgoing: -0.103

Incoming: Data request, read-out composite z-score, for C=CCC(OC(C)=O)[C@@H]1[C@@H](N(Cc2ccc(-c3ccccc3)cc2)C(=O)c2cccc3ccccc23)c2cc(OCCCO)ccc2N1C(=O)Cc1ccc(OC)cc1 (stereo not given in full)
Outgoing: -0.205

Incoming: Data request, read-out composite z-score, for CCCC[C@H]1OB(O)C[C@H]2C1=C(COc1ccccc1)C[C@H]1C(=O)C=CC(=O)[C@H]12
Outgoing: 0.351

Incoming: Data request, read-out composite z-score, for CN1C(=O)C2C=CC(C(O)c3ccc(-c4ccccc4)s3)N(NC(=O)OC(C)(C)C)C2C1=O (stereo not given)
Outgoing: 0.286

Incoming: Data request, read-out composite z-score, for COCCOC(=O)N1C(=O)[C@@]2(c3cc(C#CC4(O)CCCCCC4)ccc31)[C@H](c1ccc(O)cc1)N1[C@H](c3ccccc3)[C@H](c3ccccc3)OC(=O)[C@H]1[C@@H]2C(=O)N1CCCCCCC1
Outgoing: 0.567

Incoming: Data request, read-out composite z-score, for COc1ccc([Si](C)(C)[C@H]2[C@H](CC(=O)N3Cc4ccccc4C[C@H]3CO)O[C@@]3(C(=O)N(C)c4ccccc43)[C@@H]2C)cc1
Outgoing: 1.09

---

Assay: probe aDKK1 binding to arrayed compounds – biochemical, biotinylated probe, 635/667 nm fluorescence, primary screen (AID 1099);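 further: score merges 667nm spot fluorescence with signal to noise across triplicate slides; reference of the scale not given here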
Details: small-molecule microarray, higher = more signal
VALUE TYPE: composite z-score
// response body must contain only the number

- COMPOUND STRING: "NC(=O)NCC#Cc1ccc2c(c1)[C@]1(C(=O)N2)[C@H](c2ccc(OCCO)cc2)N2[C@H](c3ccccc3)[C@H](c3ccccc3)OC(=O)[C@H]2[C@@H]1C(=O)O"
  composite z-score: 0.151
- COMPOUND STRING: "NC(=O)NCC#Cc1ccc2c(c1)[C@]1(C(=O)N2)[C@H](c2ccc(OCCO)cc2)N2[C@H](c3ccccc3)[C@H](c3ccccc3)OC(=O)[C@H]2[C@@H]1C(=O)NC[C@H](O)c1ccccc1"
  composite z-score: 0.0619
- COMPOUND STRING: "C=C(COC)C(=O)CC[C@@H](OC(C)=O)c1ccccc1OCCO"
  composite z-score: -0.232

Incoming: Data request, read-out composite z-score, for CN(C)CCCC[C@@H]1NC(=O)[C@H]2C[C@@H](C(=O)O)[C@@H](c3ccc(O)cc3)N2C1=O
Outgoing: 2.45

Incoming: Data request, read-out composite z-score, for COc1ccc([Si](C)(C)[C@@H]2[C@@H](CC(=O)N3Cc4ccccc4C[C@H]3CO)O[C@]3(C(=O)N(Cc4cccc(N5CCOC5=O)c4)c4ccccc43)[C@H]2C)cc1
Outgoing: -0.503

Incoming: Data request, read-out composite z-score, for COc1ccccc1CN1C(=O)c2ccccc2[C@](Cc2ccccc2I)(C(=O)NCC(C)C)[C@@H]1c1ccc(CO)cc1
Outgoing: 0.736

Incoming: Data request, read-out composite z-score, for COC(=O)[C@@]1(Cc2ccccc2)[C@H]2c3cc(C(=O)N4CCCC4)n(Cc4ccc(OC)c(OC)c4)c3C[C@H]2CN1C(=O)c1ccccc1
Outgoing: 1.14

Incoming: Data request, read-out composite z-score, for O=C1[C@@H]2[C@@H](CC(COc3ccccc3)=C([C@H](O)CCc3ccccc3)[C@@H]2CO)C(=O)N1Cc1ccccc1
Outgoing: -0.0833

---

// reported z-score per item
Assay: growth effects on S. cerevisiae YJM789 – YJM789 clinical isolate, OD600, 24 h, basal, primary screen (AID 1089);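 further: growth of clinical yeast isolate S. cerevisiae YJM 789 seeded 1000 cells per well; test concentration not given here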
Details: higher = more signal, called active from +8 up or from −8 down
Active and inactive are the calls of the source.

Example entries begin here.
- COMPOUND STRING: "CO[C@H]1O[C@H](CO)[C@@H](OC(=O)Nc2ccc3c(c2)OCO3)[C@H](OC(=O)Nc2ccccc2-c2ccccc2)[C@H]1OC(=O)Nc1ccccc1-c1ccccc1"
  RECORDED RESULT: "2.5 (inactive)"
- COMPOUND STRING: "C=CCN1Cc2ccccc2[C@H]2OC(c3ccc(OCCCO)cc3)=N[C@@]2(CCS(=O)(=O)c2ccccc2)C1=O"
  RECORDED RESULT: "0.601 (inactive)"

Incoming: Data request, read-out z-score, for CC(C)C[C@@H]1NC(=O)[C@@H]2C[C@H](C(=O)NCCCCCCNC(=O)CS)[C@H](c3cccc(OCCO)c3)N2C1=O
Outgoing: 0.509 (inactive)

Incoming: Data request, read-out z-score, for O=C1C[C@@](C(=O)NCc2ccccc2)(c2ccc([N+](=O)[O-])cc2)[C@@H](c2ccc(CO)cc2)N1C1CCCCC1
Outgoing: -1.69 (inactive)
